Sourced from patent US7365200B2

quantity-name: melting point (°C)
Note: unit °C is implicit; provide only the numeric part.

Use these answered entries as a reference point.
Exercise: Need melting point, item N#Cc1c(N2CCN(C(=O)c3cccs3)CC2)c2cscc2n(-c2cccnc2)c1=O
Solution: 282

Exercise: Continue with N#Cc1c(N2CCN(C(=O)c3cccs3)CC2)c2sccc2n(Cc2ccc(F)cc2)c1=O
Solution: 286

Exercise: Continue with Cc1csc2c1c(N1CCN(C(=O)c3cccs3)CC1)c(C#N)c(=O)n2Cc1ccccc1
Solution: 223

Field: next compound
Exercise: Need melting point, item CCOC(=O)c1c(N2CCN(C(=O)c3cccs3)CC2)c2cscc2n(Cc2ccc(F)cc2)c1=O
Solution: 227
